- testDetails: inhibitors of Cryptococcus chitosan production, flow cytometry, Cibacron Brilliant Red staining (AID 1347148);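 also: compound exposure lasted three days at 37 degrees C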
- experimentalParameters: Cryptococcus neoformans chitosan, stronger effect = lower value; at 10 µM unless noted
Activity calls are given as the source filed them. No rule for the calls is given here.
Below, each of the compounds is paired with its reported fold fluorescence value.

Illustrative cases are given below, each with its answer.
Which fold fluorescence is listed for N#CC(C#N)=Cc1ccc(O)cc1 ?
5.71 [at 293.8 µM] (inactive)

Which fold fluorescence is listed for C/C(O)=C(\C#N)C(=O)Nc1cc(Br)ccc1Br ?
3.51 [at 138.9 µM] (inactive)

Which fold fluorescence is listed for CCCCCCCCCCCCCC(=O)O[C@H]1[C@H](C)[C@]2(O)[C@H](C=C(CO)C[C@@]3(O)C(=O)C(C)=C[C@H]23)[C@H]2C(C)(C)[C@@]12OC(C)=O ?
4.29 [at 81.1 µM] (inactive)

New cases:
Which fold fluorescence is listed for COC(=O)[C@@H](N)CCCN=C(N)N[N+](=O)[O-] ?
4.22 [at 214.4 µM] (inactive)

Which fold fluorescence is listed for CO[C@@H]1C[C@@H](C[C@H]2CC[C@H](C)[C@H]([C@@H](C)C(=O)O)O2)O[C@]2(O[C@](C)([C@H]3CC[C@@](C)([C@@H]4O[C@@H]([C@H]5O[C@@](O)(CO)[C@H](C)C[C@@H]5C)C[C@@H]4C)O3)C[C@H]2C)[C@@H]1C ?
5.68 [at 69 µM] (inactive)

Which fold fluorescence is listed for CCCCC/C=C\C/C=C\C/C=C\C/C=C\CCCC(=O)N[C@@H](C)CO ?
6.15 (inactive)

Which fold fluorescence is listed for COc1ccc(C(=O)OC2CCC3(C)C4CCC5C6(O)CC(O)C7(O)C(CN8CC(C)CCC8C7(C)O)C6(O)CC53OC24O)cc1OC (stereo not drawn) ?
11.6 [at 74.2 µM] (inactive)

Which fold fluorescence is listed for CCCCC/C=C\C/C=C\C/C=C\C/C=C\CCCCCC(=O)NCCO ?
5.48 (inactive)

----------
Below, each of the molecules is paired with its reported cell count value.
- testDetails: sensitizers of A549 cells to miR-34 induction, primary screen, imaging, A549 dox-inducible miR-34, nuclei and caspase counts (AID 1347080)
- experimentalParameters: A549 miR-34 inducible, Hoechst nuclei count, 48 h; measured here: total cells with miR-34 induction; stronger effect = lower value
Form field (numeric): enter value without unit.

Illustrative cases are given below, each with its answer.
Which cell count is listed for C[N+]1(C)C2CC(OC(=O)[C@@H](CO)c3ccccc3)CC1C1OC12 (some centres not stated) ?
10100

Which cell count is listed for CCn1cnc2c(Nc3cccc(Cl)c3)nc(N[C@@H]3CCCC[C@@H]3N)nc21 ?
797

Which cell count is listed for CCCn1c(=O)c2[nH]c(C3CCCC3)nc2n(CCCOC(=O)c2ccc(S(=O)(=O)F)cc2)c1=O ?
6100

Which cell count is listed for CC[C@@H]1/C=C/C=C/C[C@H](C)[C@@H](O)[C@](C)(O)C(=O)[C@H](C)[C@@H](O)[C@H](C)C(=O)[C@H](C)[C@@H](O)[C@H](C)/C=C/C(=O)O[C@H]2[C@@H](C)[C@@H](CC1)O[C@@]1(CC[C@@H](C)[C@@H](C[C@H](C)O)O1)[C@@H]2C ?
989

Which cell count is listed for COC1CCC(OC2C[C@H]([C@]3(C)CC[C@]4(CC(O)C(C)[C@@H](C(C)C=C(C)C(=O)C(C)CC(C)C(=O)O)O4)O3)O[C@]3(O[C@@H]([C@H]4O[C@@](O)(CO)C(C)CC4C)CC3C)C2C)OC1C (some centres not stated) ?
874

Which cell count is listed for NC(=O)OCCCc1ccccc1 ?
9650

Which cell count is listed for CC(C)(N)Cc1ccccc1 ?
11900

Which cell count is listed for C#CCN[C@H](C)Cc1ccccc1 ?
9640

Which cell count is listed for CCCCC/C=C\C/C=C\C/C=C\C/C=C\CCCC(=O)Nc1cccc([N+](=O)[O-])c1 ?
5310

Which cell count is listed for COc1ccc2c(c1OC)CN1CCc3cc4c(cc3C1C2)OCO4 (configuration not stated) ?
8510

New cases:
Which cell count is listed for COc1cc2c3cc1Oc1cc(ccc1O)C[C@@H]1c4c(cc(OC)c(O)c4Oc4cccc(c4)C[C@@H]3N(C)CC2)CC[N+]1(C)C ?
8210

Which cell count is listed for NCCc1cc(O)c(O)cc1O ?
10500

Which cell count is listed for O=C(NC(=O)c1c(F)cccc1F)Nc1cc(Cl)c(OC(F)(F)C(F)C(F)(F)F)cc1Cl (configuration not stated) ?
7240
